# SYSTEM: human MRGPRD (Homo sapiens)
# Sequence (Q8TDS7 whole entry): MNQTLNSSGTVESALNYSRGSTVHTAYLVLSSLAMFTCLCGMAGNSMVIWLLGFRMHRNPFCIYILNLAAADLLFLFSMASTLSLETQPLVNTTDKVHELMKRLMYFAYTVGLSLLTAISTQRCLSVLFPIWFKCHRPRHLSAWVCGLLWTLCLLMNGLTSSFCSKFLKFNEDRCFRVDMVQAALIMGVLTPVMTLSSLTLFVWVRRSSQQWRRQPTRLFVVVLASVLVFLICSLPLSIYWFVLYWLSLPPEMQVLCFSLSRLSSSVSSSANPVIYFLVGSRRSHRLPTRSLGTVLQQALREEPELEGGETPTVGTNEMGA
# RUN DESCRIPTION: MRGPRD antagonist activity, IP-One HTRF assay in CHO cells stably expressing human MRGPRD (versus 100 μM β-Alanine agonist)
Consider the following compounds and their measured IC50 readings.

Solved cases (5 shown):
{"COMPOUND": "O=C(Nc1ccncc1)c1nnn(-c2ccc(-c3ccccc3C(F)(F)F)cc2)c1C1CC1 [Compound 7-169]", "IC50": "1 to 3 µM"}
{"COMPOUND": "Cc1cc(-c2ccc(-n3nnc(C(=O)Nc4ccncc4)c3C3CC3)cc2)on1 [Compound 7-198]", "IC50": "1 to 3 µM"}
{"COMPOUND": "Cc1ccc(CNC(=O)c2nnn(-c3cccc(-c4ccc(C#N)cc4)c3)c2C2CC2)cn1 [Compound 7-7]", "IC50": "> 3 µM"}
{"COMPOUND": "Cc1nn(C)c(C)c1-c1ccc(-n2nnc(C(=O)Nc3ccncc3)c2C2CC2)cc1F [Compound 7-234]", "IC50": "0.1 to 0.5 µM"}
{"COMPOUND": "Cn1ncc(C#N)c1-c1ccc(-n2nnc(C(=O)Nc3ccncc3)c2C2CC2)cc1 [Compound 7-188]", "IC50": "1 to 3 µM"}

## Input // returns reported IC50 for input CC(=O)c1ccc(-c2ccc(-n3nnc(C(=O)Nc4ccncc4)c3C3CC3)c(C)c2)cc1 [Compound 7-231]
## Output 0.1 to 0.5 µM

## Input // returns reported IC50 for input N#Cc1ccc(-c2ccc(-n3nnc(C(=O)NC4(c5cccnc5)CC4)c3C3CC3)cc2)cn1 [Compound 18-8]
## Output 1 to 3 µM

---

Consider the following compounds and their measured pIC50 readings.
# SYSTEM: UniProt Q8TDS7
# RUN DESCRIPTION: MRGPRD antagonist activity, IP-One HTRF assay in CHO cells stably expressing human MRGPRD (versus 100 μM β-Alanine agonist)
pIC50: −log10 of the molar value.

Solved cases (5 shown):
{"COMPOUND": "O=C(Nc1ccncc1)c1nnn(-c2ccc(-c3ccn(-c4ccccc4)n3)cc2)c1C1CC1", "pIC50": "6.30 to 7.00"}
{"COMPOUND": "O=C(Nc1ccncc1)c1nnn(-c2ccc(O)cc2)c1C1CC1", "pIC50": "5.52 to 6.00"}
{"COMPOUND": "Cc1cc(NC(=O)c2nnn(C3CC=C(c4c(C)nn5ccccc45)CC3)c2C2CC2)ccn1 (stereo not drawn)", "pIC50": "6.00 to 6.30"}
{"COMPOUND": "NS(=O)(=O)c1ccc(-c2ccc(-n3nnc(C(=O)Nc4ccncc4)c3C3CC3)cc2)cc1", "pIC50": "6.00 to 6.30"}
{"COMPOUND": "O=C(Nc1ccncc1)c1nnn(C2CCCCC2)c1C1CC1", "pIC50": "5.52 to 6.00"}

API: the following record is the query input.
## Input Hello, I am looking for reported pIC50 with UniProt Q8TDS7 for `CCn1cc(C2(NC(=O)c3nnn(-c4ccc(-c5ccc(C#N)c(F)c5)cc4)c3C(C)C)CC2)cn1` . Could you help?
## Output 6.30 to 7.00

---

# SYSTEM: human MRGPRD (Homo sapiens)
# RUN DESCRIPTION: MRGPRD antagonist activity, IP-One HTRF assay in CHO cells stably expressing human MRGPRD (versus 100 μM β-Alanine agonist)
Consider the following molecules and their measured IC50 readings.

Solved cases (5 shown):
{"MOLECULE": "Cc1nn(C(F)F)cc1-c1ccc(-n2nnc(C(=O)Nc3ccncc3)c2C2CC2)cc1", "IC50": "500 to 1000 nM"}
{"MOLECULE": "COc1cc(-c2ccc(-n3nnc(C(=O)Nc4ccncc4)c3C3CC3)cc2)ccc1C#N", "IC50": "100 to 500 nM"}
{"MOLECULE": "N#CCc1ccc(-c2ccc(-n3nnc(C(=O)NC4(c5cccnc5)CC4)c3C3CC3)cc2)cc1", "IC50": "1000 to 3000 nM"}
{"MOLECULE": "Cc1csc(-c2ccc(-n3nnc(C(=O)Nc4ccncc4)c3C3CC3)cc2)n1", "IC50": "500 to 1000 nM"}
{"MOLECULE": "COc1cc(-c2c(C)nn(C)c2C)ccc1-n1nnc(C(=O)Nc2ccncc2)c1C1CC1", "IC50": "100 to 500 nM"}

## Input // returns reported IC50 for input `COc1ccc(C2(NC(=O)c3nnn(-c4ccc(-c5c(C)nn(C)c5C)cc4)c3C(C)C)CC2)cn1`
## Output 500 to 1000 nM

## Input // returns reported IC50 for input `O=C(Nc1ccncc1)c1nnn(-c2ccc(-c3ccccc3Cl)cc2)c1C1CC1`
## Output 500 to 1000 nM

## Input // returns reported IC50 for input `N#Cc1ccc(-c2ccc(-n3nnc(C(=O)Nc4ccncc4)c3C3CC3)cc2)c(F)c1`
## Output 100 to 500 nM

## Input // returns reported IC50 for input `Cc1nn(C)c(C)c1-c1ccc(-n2nnc(C(=O)Nc3ccncc3)c2C2CC2)nc1`
## Output 100 to 500 nM

## Input // returns reported IC50 for input `CC(C)(C)c1cccc(-c2ccc(-n3nnc(C(=O)Nc4ccncc4)c3C3CC3)cc2)c1`
## Output 1000 to 3000 nM

## Input // returns reported IC50 for input `Cc1ccc(-n2nnc(C(=O)Nc3ccncc3)c2C2CC2)cc1-c1ccccc1`
## Output 1000 to 3000 nM

## Input // returns reported IC50 for input `Cc1cncc(CNC(=O)c2nnn(-c3ccc(-c4c(C)nn(-c5ccccc5)c4C)cc3)c2C2CC2)c1`
## Output 100 to 500 nM

## Input // returns reported IC50 for input `CC(=O)c1ccc(-c2cccc(-n3nnc(C(=O)Nc4ccncc4)c3C3CC3)c2)cc1F`
## Output 500 to 1000 nM

## Input // returns reported IC50 for input `CCn1cc(CNC(=O)c2nnn(-c3ccc(-c4c(C)nn(CC)c4C)cc3)c2C2CC2)cn1`
## Output 100 to 500 nM

## Input // returns reported IC50 for input `O=C(Nc1ccncc1)c1nnn(-c2ccc(-c3ccccc3F)cc2)c1C1CC1`
## Output 500 to 1000 nM
